Cited source: the supplement of paper PMC10567573

B1: GALNT9 (parent)
chain: FTQSGPIVSRATGRCLEVEMSKDA

- Variants of: B1
- assay.summary: protein stability index of a GFP-peptide fusion (GPS, HEK-293T) (PSI 1-6); higher = more stable;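 further: lentivirally expressed fusions sorted by FACS into six bins by GFP to DsRed ratio, PSI derived from sequencing read proportions per bin multiplied by bin number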
- condition: c terminus: a fixed tail appended
measured.parameter: protein stability index

>>> recorded_result("FTQSGPIVSRATGRQLEVEMSKDA [C15Q]")
3.14
>>> recorded_result("FTQSLPIVSRATGRCLEVEMSKDA [G5L]")
1.53
>>> recorded_result("FTQIGPIVSRATGRCLEVEMSKDA [S4I]")
3.66
>>> recorded_result("FTQSGPIVSRITGRCLEVEMSKDA [A11I]")
1.67
>>> recorded_result("FTQSGPIVSRATGRTLEVEMSKDA [C15T]")
2.99
>>> recorded_result("FTQSGPIVSRAIGRCLEVEMSKDA [T12I]")
1.89
>>> recorded_result("FTQSGPIVSRATGRVLEVEMSKDA [C15V]")
3.06
>>> recorded_result("FTQSGPIVSRATGRCLEVEVSKDA [M20V]")
2.18
>>> recorded_result("FTQSGPNVSRATGRCLEVEMSKDA [I7N]")
2.73
>>> recorded_result("FTQSGPIVSRATGRCLEVEMSKDV [A24V]")
1.68
>>> recorded_result("FTQSGPIVSRATGRCLEVEMSKDD [A24D]")
2.51
>>> recorded_result("FTQSGPIVSRATGRCLETEMSKDA [V18T]")
2.02
>>> recorded_result("FTQSGPIVSRRTGRCLEVEMSKDA [A11R]")
1.65
>>> recorded_result("FTQSGMIVSRATGRCLEVEMSKDA [P6M]")
3.4
